Taken from patent US20230047816A1.

Test system: Hs-578T
Experiment: Combination with anticancer agents, Hs-578T
Format: cell-based
Details: Homo sapiens, anticancer agent alone
MEASURE_NAME: IC50 (µM)

smiles_text=NC(=O)c1cccc2cn(-c3ccc([C@@H]4CCCNC4)cc3)nc12 measurement_target=Hs-578T measure_name=IC50 measured=36

* * *

Readings of pIC50 for the listed compounds
Molecular target: Recombinant full length human PFKFB3 (Homo sapiens, UniProt Q16875)
Sequence (Q16875 whole entry): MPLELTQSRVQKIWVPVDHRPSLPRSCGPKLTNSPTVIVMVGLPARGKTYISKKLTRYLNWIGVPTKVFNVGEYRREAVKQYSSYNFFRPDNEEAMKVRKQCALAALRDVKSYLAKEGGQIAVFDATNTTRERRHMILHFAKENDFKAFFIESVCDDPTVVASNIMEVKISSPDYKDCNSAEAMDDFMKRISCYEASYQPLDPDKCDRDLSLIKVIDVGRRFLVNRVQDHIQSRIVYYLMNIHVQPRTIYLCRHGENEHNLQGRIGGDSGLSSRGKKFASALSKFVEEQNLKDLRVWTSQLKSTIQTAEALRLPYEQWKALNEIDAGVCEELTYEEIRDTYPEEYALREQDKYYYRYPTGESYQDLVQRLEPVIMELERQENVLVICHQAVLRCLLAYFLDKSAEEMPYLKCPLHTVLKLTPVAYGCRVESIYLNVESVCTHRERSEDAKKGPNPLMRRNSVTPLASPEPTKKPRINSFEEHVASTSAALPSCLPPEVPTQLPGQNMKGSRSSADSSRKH
Assay: PFKFB3 kinase activity assay (ADP production, ADP-Glo)
pIC50: −log10 of the molar value.
MEASURE_NAME: pIC50

compound="COC(=O)c1ccc(-c2ccc(F)c(F)c2)cc1N1Cc2ccc(-c3c[nH]nn3)cc2C1=O [Compound 110]" measurement_target="Recombinant full length human PFKFB3 (Homo sapiens, UniProt Q16875)" measure_name=pIC50 measured="> 4.70"
compound="CS(=O)(=O)NC(=O)c1ccc2c(c1)C(=O)N(c1cc(-c3ccc(F)c(F)c3)ccc1C(N)=O)C2 [Compound 107]" measurement_target="Recombinant full length human PFKFB3 (Homo sapiens, UniProt Q16875)" measure_name=pIC50 measured="> 4.70"
compound="CS(=O)(=O)NC(=O)c1ccc2c(c1)C(=O)N(c1cc(-c3ccccc3)ccc1C(=O)O)C2 [Compound 104]" measurement_target="Recombinant full length human PFKFB3 (Homo sapiens, UniProt Q16875)" measure_name=pIC50 measured="> 6.30"
compound="CCOC(=O)c1ccc(-c2ccc(F)c(F)c2)cc1N1Cc2ccc(CO)cc2C1=O [compound 159]" measurement_target="Recombinant full length human PFKFB3 (Homo sapiens, UniProt Q16875)" measure_name=pIC50 measured="> 4.70"
compound="CC(C)OC(=O)c1ccc(-c2ccccc2)cc1N1C(=O)c2ccc(-c3nnn[nH]3)cc2C1=O [Compound 96]" measurement_target="Recombinant full length human PFKFB3 (Homo sapiens, UniProt Q16875)" measure_name=pIC50 measured="4.70 to 5.30"
compound="Cc1oc(=O)oc1COC(=O)c1ccc(-c2ccc(F)c(F)c2)cc1N1Cc2ccc(-c3c[nH]nn3)cc2C1=O [Compound 116]" measurement_target="Recombinant full length human PFKFB3 (Homo sapiens, UniProt Q16875)" measure_name=pIC50 measured="4.70 to 5.30"
compound="O=C(O)c1ccc(-c2ccccc2)cc1N1C(=O)c2cc(Cl)c(-c3cnn[nH]3)cc2C1=O [Compound 144c]" measurement_target="Recombinant full length human PFKFB3 (Homo sapiens, UniProt Q16875)" measure_name=pIC50 measured="> 6.30"
compound="O=C(O)c1ccc(-c2ccc(F)c(F)c2)cc1N1Cc2ccc(CO)cc2C1=O [compound 158]" measurement_target="Recombinant full length human PFKFB3 (Homo sapiens, UniProt Q16875)" measure_name=pIC50 measured="4.70 to 5.30"
compound="NC(=O)c1ccc(-c2ccc(F)c(F)c2)cc1N1Cc2ccc(-c3nnn[nH]3)cc2C1=O [Compound 101]" measurement_target="Recombinant full length human PFKFB3 (Homo sapiens, UniProt Q16875)" measure_name=pIC50 measured="4.70 to 5.30"
compound="CN(C)CCOC(=O)c1ccc(-c2ccc(F)c(F)c2)cc1N1Cc2ccc(C(=O)NS(C)(=O)=O)cc2C1=O [Compound 108]" measurement_target="Recombinant full length human PFKFB3 (Homo sapiens, UniProt Q16875)" measure_name=pIC50 measured="> 4.70"
